residual activity listing for selected molecules.
molecular target: PLK1 (human); assay: radiometric filter-binding kinase assay, Kinase HotSpot; settings: compound 0.5 µM; ATP 10 µM

Q: Name the reported residual activity value associated with the molecule O=C(c1cc2cc(O)ccc2[nH]1)c1cc2cc(O)ccc2[nH]1
A: 101%

Q: Name the reported residual activity value associated with the molecule O=C1C(Cl)=C(N2C(=O)CCC2=O)C(=O)c2ccccc21
A: 97.6%

Q: Name the reported residual activity value associated with the molecule COc1cc2ncnc(Nc3ccc(Oc4ccccc4)cc3)c2cc1OC
A: 96.4%

Q: Name the reported residual activity value associated with the molecule NC(=O)c1cccc(-c2cc(Nc3ccc(OC(F)(F)F)cc3)ncn2)c1
A: 97.7%

Q: Name the reported residual activity value associated with the molecule COc1cc2ncnc(Nc3ccc(OCc4ccccc4)cc3)c2cc1OC
A: 101%

Q: Name the reported residual activity value associated with the molecule Fc1ccc(-c2nc3n(c2-c2ccncc2)CCS3)cc1
A: 101%

Q: Name the reported residual activity value associated with the molecule Cc1nc(-c2ccccc2)c(-c2ccncc2)o1
A: 104%

Q: Name the reported residual activity value associated with the molecule Cc1cncc2cccc(S(=O)(=O)N3CCCN(C(=O)CN)C[C@H]3C)c12
A: 101%

====

residual activity listing for selected compounds.
target: IRAK4 (human) (UniProt Q9NWZ3); assay: radiometric filter-binding kinase assay, Kinase HotSpot; conditions: compound 0.5 µM; ATP 10 µM
Sequence (Q9NWZ3 whole entry, looked up): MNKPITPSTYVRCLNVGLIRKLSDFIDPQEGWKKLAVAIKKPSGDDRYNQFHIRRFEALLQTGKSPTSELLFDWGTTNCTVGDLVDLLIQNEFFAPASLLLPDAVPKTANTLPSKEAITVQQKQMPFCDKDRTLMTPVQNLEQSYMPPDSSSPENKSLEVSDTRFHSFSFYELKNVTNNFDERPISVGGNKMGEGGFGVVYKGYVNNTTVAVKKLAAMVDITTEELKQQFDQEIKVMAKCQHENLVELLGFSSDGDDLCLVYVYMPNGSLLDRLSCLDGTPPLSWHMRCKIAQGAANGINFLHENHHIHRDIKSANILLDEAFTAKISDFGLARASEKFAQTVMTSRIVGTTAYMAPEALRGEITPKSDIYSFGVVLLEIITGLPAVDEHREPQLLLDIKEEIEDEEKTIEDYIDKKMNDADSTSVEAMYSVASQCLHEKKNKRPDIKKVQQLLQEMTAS
All answers are understood in %, so give the number only.

O=C1c2ccccc2-c2nc3nnnn3nc21
96.9
C[C@@H]1CCN(C(=O)CC#N)C[C@@H]1N(C)c1ncnc2[nH]ccc12
88.5
N#C/C(=C\c1ccc(O)c(O)c1)C(=O)NCc1ccccc1
93.7
COc1cc(Nc2c(C#N)cnc3cc(OCCCN4CCN(C)CC4)c(OC)cc23)c(Cl)cc1Cl
63.2
COc1cc2ncnc(Nc3ccc(Oc4ccccc4)cc3)c2cc1OC
112

Q: Name the reported residual activity value associated with the compound O=C1Nc2ccc(Br)cc2/C1=C\c1cc2c([nH]1)CCCC2
A: 67.2

Q: Name the reported residual activity value associated with the compound CN(C)S(=O)(=O)c1ccc2c(c1)/C(=C/c1cc3c([nH]1)CCCC3)C(=O)N2
A: 57.7

Q: Name the reported residual activity value associated with the compound COc1cc2ncnc(Nc3ccc(OCc4ccccc4)cc3)c2cc1OC
A: 119

Q: Name the reported residual activity value associated with the compound Cc1cncc2cccc(S(=O)(=O)N3CCCN(C(=O)CN)C[C@H]3C)c12
A: 109

Q: Name the reported residual activity value associated with the compound CO[C@@H]1[C@H](N(C)C(=O)c2ccccc2)C[C@H]2O[C@]1(C)n1c3ccccc3c3c4c(c5c6ccccc6n2c5c31)C(=O)NC4
A: 71.5

====

biological target: UniProtKB P51957; test: radiometric filter-binding kinase assay, Kinase HotSpot; details: compound 0.5 µM; ATP 10 µM
Sequence (P51957 whole entry, looked up): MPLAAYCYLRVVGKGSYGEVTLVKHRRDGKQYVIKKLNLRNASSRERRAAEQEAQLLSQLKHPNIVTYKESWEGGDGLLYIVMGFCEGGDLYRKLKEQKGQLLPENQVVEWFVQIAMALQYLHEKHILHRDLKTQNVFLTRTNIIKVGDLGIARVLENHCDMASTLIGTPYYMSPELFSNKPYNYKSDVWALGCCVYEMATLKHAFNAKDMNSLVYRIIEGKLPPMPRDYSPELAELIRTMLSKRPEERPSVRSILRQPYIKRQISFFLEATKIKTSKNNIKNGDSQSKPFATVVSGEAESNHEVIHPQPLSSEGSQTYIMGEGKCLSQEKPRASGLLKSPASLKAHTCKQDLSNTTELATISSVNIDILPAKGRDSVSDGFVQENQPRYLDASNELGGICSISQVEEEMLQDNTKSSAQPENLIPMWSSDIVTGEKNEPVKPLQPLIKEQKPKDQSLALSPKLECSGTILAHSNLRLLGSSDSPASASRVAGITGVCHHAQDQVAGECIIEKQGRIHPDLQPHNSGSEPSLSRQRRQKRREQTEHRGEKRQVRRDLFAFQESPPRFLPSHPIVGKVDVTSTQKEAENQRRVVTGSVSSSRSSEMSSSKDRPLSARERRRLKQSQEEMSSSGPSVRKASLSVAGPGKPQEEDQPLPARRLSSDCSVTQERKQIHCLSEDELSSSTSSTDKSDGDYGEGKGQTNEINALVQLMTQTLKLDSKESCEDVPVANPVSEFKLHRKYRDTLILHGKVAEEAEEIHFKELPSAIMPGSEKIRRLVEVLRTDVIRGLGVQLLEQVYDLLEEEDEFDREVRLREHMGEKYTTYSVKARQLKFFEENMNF
value_kind: residual activity (%)
All answers are understood in %, so give the number only.

Below: 2 compounds and their reported residual activity.
COc1ccc2c(c1)/C(=C/c1cnc[nH]1)C(O)=N2
96
CN(C)S(=O)(=O)c1ccc2c(c1)/C(=C/c1cc3c([nH]1)CCCC3)C(=O)N2
99.9

Q: Name the reported residual activity value associated with the compound CS(=O)(=O)CCNCc1ccc(-c2ccc3ncnc(Nc4ccc(OCc5cccc(F)c5)c(Cl)c4)c3c2)o1
A: 98.1

====

target: CSF1R (human) (UniProt P07333); experiment: radiometric filter-binding kinase assay, Kinase HotSpot; settings: compound 0.5 µM; ATP 10 µM
Sequence (P07333 whole entry, looked up): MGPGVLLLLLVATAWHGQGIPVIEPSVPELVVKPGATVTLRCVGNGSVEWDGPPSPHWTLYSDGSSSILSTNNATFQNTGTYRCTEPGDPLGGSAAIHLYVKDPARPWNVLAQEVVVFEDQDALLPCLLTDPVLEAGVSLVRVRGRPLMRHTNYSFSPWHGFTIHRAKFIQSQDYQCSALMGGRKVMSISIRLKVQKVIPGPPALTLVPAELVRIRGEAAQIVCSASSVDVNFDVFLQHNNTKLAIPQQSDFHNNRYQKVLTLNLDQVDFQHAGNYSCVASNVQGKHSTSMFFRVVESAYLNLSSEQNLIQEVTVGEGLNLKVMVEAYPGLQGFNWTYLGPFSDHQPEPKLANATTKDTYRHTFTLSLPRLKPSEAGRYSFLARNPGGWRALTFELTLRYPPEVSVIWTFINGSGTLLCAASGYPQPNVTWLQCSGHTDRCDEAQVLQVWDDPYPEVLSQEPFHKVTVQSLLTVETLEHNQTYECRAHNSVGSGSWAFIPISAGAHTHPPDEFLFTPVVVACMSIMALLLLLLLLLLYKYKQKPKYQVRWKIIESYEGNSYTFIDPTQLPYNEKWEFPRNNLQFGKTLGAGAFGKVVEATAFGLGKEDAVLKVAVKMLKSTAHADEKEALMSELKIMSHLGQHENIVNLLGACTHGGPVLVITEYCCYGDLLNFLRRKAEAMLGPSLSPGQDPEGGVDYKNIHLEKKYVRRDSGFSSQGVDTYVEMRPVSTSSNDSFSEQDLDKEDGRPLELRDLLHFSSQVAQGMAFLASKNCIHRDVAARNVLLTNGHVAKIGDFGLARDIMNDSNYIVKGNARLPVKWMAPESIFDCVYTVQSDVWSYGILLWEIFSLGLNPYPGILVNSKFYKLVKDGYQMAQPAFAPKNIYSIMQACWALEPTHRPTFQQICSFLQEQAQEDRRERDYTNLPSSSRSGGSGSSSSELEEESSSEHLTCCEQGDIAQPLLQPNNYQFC
value_kind: residual activity
Remember to follow the number with its unit.

NC(=O)c1cccc(-c2cc(Nc3ccc(OC(F)(F)F)cc3)ncn2)c1
94.1%
CO[C@@H]1[C@H](N(C)C(=O)c2ccccc2)C[C@H]2O[C@]1(C)n1c3ccccc3c3c4c(c5c6ccccc6n2c5c31)C(=O)NC4
6.65%
COc1cc2ncnc(Nc3ccc(OCc4ccccc4)cc3)c2cc1OC
97.8%
CC(C)(C)c1cc(C=C(C#N)C#N)cc(Br)c1O
96.8%
COc1ccc2c(c1)/C(=C/c1cnc[nH]1)C(O)=N2
88.7%

Q: Item: CN(C)S(=O)(=O)c1ccc2c(c1)/C(=C/c1cc3c([nH]1)CCCC3)C(=O)N2 Test system: CSF1R (human) (UniProt P07333) Read-out: residual activity Value: ?
A: 37.2%

Q: Item: O=C1NC(=O)c2c1c1c3ccccc3[nH]c1n1cncc21 Test system: CSF1R (human) (UniProt P07333) Read-out: residual activity Value: ?
A: 64.9%

====

target: WNK2 (human) (UniProt Q9Y3S1); assay: radiometric filter-binding kinase assay, Kinase HotSpot; details: compound 0.5 µM; ATP 10 µM
Sequence (Q9Y3S1 whole entry, looked up): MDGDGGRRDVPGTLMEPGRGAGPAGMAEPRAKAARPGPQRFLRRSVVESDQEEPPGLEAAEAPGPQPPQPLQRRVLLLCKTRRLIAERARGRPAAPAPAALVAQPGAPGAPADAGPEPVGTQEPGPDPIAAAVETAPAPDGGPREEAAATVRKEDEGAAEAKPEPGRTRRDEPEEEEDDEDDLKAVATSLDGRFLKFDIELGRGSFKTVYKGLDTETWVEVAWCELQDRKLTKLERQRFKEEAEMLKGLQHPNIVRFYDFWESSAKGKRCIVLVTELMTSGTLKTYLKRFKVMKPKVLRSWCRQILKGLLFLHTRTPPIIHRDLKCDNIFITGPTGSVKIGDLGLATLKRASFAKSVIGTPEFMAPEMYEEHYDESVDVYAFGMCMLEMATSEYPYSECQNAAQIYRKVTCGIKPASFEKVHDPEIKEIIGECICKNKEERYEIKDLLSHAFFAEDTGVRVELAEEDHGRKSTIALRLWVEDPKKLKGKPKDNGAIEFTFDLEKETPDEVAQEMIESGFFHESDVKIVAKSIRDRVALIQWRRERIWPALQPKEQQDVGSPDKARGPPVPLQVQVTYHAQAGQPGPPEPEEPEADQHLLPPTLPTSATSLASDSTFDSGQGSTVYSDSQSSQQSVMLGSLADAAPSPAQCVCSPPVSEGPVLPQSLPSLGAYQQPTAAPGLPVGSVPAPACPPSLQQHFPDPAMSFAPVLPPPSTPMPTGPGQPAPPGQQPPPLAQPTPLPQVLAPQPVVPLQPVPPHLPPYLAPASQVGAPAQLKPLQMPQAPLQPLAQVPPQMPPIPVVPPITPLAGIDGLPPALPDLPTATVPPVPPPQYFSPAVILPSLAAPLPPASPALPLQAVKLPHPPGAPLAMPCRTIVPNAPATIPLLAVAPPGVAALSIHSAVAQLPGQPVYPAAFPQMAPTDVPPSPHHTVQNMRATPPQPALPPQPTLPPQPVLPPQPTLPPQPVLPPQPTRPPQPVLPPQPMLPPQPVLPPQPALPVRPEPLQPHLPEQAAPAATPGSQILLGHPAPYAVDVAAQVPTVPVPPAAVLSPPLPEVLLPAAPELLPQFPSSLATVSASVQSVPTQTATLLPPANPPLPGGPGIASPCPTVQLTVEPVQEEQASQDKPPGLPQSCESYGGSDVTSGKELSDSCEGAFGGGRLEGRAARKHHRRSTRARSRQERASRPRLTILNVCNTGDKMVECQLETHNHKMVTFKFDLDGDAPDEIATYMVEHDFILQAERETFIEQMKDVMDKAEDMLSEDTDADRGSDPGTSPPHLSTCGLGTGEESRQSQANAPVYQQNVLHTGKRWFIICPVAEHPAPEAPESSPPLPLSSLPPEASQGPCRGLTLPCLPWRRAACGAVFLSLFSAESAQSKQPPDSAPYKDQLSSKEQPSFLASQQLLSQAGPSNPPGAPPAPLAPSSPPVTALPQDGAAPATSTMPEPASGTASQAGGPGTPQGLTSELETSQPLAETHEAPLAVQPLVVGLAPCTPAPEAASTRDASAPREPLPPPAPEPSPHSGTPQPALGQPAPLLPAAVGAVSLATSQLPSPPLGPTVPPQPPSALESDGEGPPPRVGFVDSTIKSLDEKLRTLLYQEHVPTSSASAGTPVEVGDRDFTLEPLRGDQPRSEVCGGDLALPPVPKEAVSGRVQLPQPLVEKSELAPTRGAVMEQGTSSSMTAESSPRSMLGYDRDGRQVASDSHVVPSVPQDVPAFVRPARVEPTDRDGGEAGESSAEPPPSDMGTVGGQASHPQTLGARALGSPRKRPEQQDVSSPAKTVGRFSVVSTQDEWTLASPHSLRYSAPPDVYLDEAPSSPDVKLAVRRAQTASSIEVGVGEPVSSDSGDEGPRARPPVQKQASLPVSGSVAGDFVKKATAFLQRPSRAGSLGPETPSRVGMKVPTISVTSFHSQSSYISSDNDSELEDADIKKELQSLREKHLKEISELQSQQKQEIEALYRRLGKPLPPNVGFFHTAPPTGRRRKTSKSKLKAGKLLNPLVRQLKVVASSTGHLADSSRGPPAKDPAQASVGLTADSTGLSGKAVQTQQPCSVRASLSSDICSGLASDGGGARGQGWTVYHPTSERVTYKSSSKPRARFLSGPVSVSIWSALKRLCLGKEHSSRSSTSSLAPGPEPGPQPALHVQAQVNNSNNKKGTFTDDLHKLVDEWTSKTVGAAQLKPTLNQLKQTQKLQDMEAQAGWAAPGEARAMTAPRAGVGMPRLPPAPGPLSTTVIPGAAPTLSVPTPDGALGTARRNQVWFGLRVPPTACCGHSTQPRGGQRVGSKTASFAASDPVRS
residual activity listing for selected molecules.
All answers are understood in %, so give the number only.

Below: 10 molecules and their reported residual activity.
CN(C)c1ccc(/C=C2\C(=O)Nc3ccccc32)cc1
104
N#Cc1c[nH]c2c[nH]/c(=N\Cc3cccnc3)cc2/c1=N\c1ccc(F)c(Cl)c1
91.1
NC(=O)c1cccc(-c2cc(Nc3ccc(OC(F)(F)F)cc3)ncn2)c1
115
COc1ccc(C(=O)Nc2sc3c(c2C(N)=O)CCCC3)cc1OC
100
CN(C)CCCn1cc(C2=C(c3c[nH]c4ccccc34)C(=O)NC2=O)c2ccccc21
107
N#C/C(=C\c1ccc(O)c(O)c1)C(=O)NCc1ccccc1
104
C[C@@H]1CCN(C(=O)CC#N)C[C@@H]1N(C)c1ncnc2[nH]ccc12
101
O=C1NC(=O)c2c1c1c3ccccc3[nH]c1n1cncc21
86.6
COc1ccc(S(=O)(=O)N(CCO)c2ccccc2CN(C)C/C=C/c2ccc(Cl)cc2)cc1
97.1
O=C(c1cc2cc(O)ccc2[nH]1)c1cc2cc(O)ccc2[nH]1
96.6

Here's the next entry for you.
Q: Item: COc1ccc(Cl)cc1NC(=O)Nc1cc(C)nc2ccccc12 Test system: WNK2 (human) (UniProt Q9Y3S1) Read-out: residual activity Value: ?
A: 104

====

target: OXSR1 (human); test: radiometric filter-binding kinase assay, Kinase HotSpot; conditions: compound 0.5 µM; ATP 10 µM
value_kind: residual activity (%)
All answers are understood in %, so give the number only.

Below: 10 compounds and their reported residual activity.
COc1ccc(C(=O)Nc2sc3c(c2C(N)=O)CCCC3)cc1OC
99.9
NC(=O)c1cccc(-c2cc(Nc3ccc(OC(F)(F)F)cc3)ncn2)c1
97.9
Cc1cncc2cccc(S(=O)(=O)N3CCCN(C(=O)CN)C[C@H]3C)c12
99.4
Ic1cccc(CSc2nnc(-c3ccncc3)o2)c1
105
COc1cc(Nc2c(C#N)cnc3cc(OCCCN4CCN(C)CC4)c(OC)cc23)c(Cl)cc1Cl
100
CN(C)CCCn1cc(C2=C(c3c[nH]c4ccccc34)C(=O)NC2=O)c2ccccc21
97.4
COc1ccc2c(c1)/C(=C/c1cnc[nH]1)C(O)=N2
97.3
CN(C)S(=O)(=O)c1ccc2c(c1)/C(=C/c1cc3c([nH]1)CCCC3)C(=O)N2
89.1
CS(=O)(=O)CCNCc1ccc(-c2ccc3ncnc(Nc4ccc(OCc5cccc(F)c5)c(Cl)c4)c3c2)o1
105
O=C1C(Cl)=C(N2C(=O)CCC2=O)C(=O)c2ccccc21
108

Q: Name the reported residual activity value associated with the compound O=C1NC(=O)c2c1c1c3ccccc3[nH]c1n1cncc21
A: 97.2

Q: Name the reported residual activity value associated with the compound CCCCc1c(-c2ccc(OC)cc2)[nH]c2nccnc12
A: 102

Q: Name the reported residual activity value associated with the compound COc1ccc2c(c1)c(C1=C(c3c[nH]c4ccccc34)C(=O)NC1=O)cn2CCCN(C)C
A: 97.7

Q: Name the reported residual activity value associated with the compound Fc1ccc(-c2nc3n(c2-c2ccncc2)CCS3)cc1
A: 92.5

Q: Name the reported residual activity value associated with the compound C[C@@H]1CCN(C(=O)CC#N)C[C@@H]1N(C)c1ncnc2[nH]ccc12
A: 98.2

====

biological target: LCK (human); assay: radiometric filter-binding kinase assay, Kinase HotSpot; conditions: compound 0.5 µM; ATP 10 µM
Lab note: cut-off is 90%. Strictly less in residual activity is satisfied. Exactly 90% or more is not satisfied.

Solved entries (count: 8):
COc1cc2ncnc(Nc3ccc(OCc4ccccc4)cc3)c2cc1OC
satisfied
NC(=O)c1cccc(-c2cc(Nc3ccc(OC(F)(F)F)cc3)ncn2)c1
not satisfied
Cc1cncc2cccc(S(=O)(=O)N3CCCN(C(=O)CN)C[C@H]3C)c12
not satisfied
CN(C)c1ccc(/C=C2\C(=O)Nc3ccccc32)cc1
not satisfied
CO[C@@H]1[C@H](N(C)C(=O)c2ccccc2)C[C@H]2O[C@]1(C)n1c3ccccc3c3c4c(c5c6ccccc6n2c5c31)C(=O)NC4
satisfied
N#C/C(=C\c1ccc(O)c(O)c1)C(=O)NCc1ccccc1
not satisfied
O=C(c1cc2cc(O)ccc2[nH]1)c1cc2cc(O)ccc2[nH]1
satisfied
O=C1C(Cl)=C(N2C(=O)CCC2=O)C(=O)c2ccccc21
not satisfied

Q: Does the reported residual activity of the following compound sit strictly below 90%? COc1ccc(S(=O)(=O)N(CCO)c2ccccc2CN(C)C/C=C/c2ccc(Cl)cc2)cc1
A: not satisfied

Q: Does the reported residual activity of the following compound sit strictly below 90%? c1ccc2c(-c3ccncc3)c[nH]c2c1
A: not satisfied

Q: Does the reported residual activity of the following compound sit strictly below 90%? O=C1NC(=O)c2c1c1c3ccccc3[nH]c1n1cncc21
A: satisfied

Q: Does the reported residual activity of the following compound sit strictly below 90%? C[C@@H]1CCN(C(=O)CC#N)C[C@@H]1N(C)c1ncnc2[nH]ccc12
A: satisfied

Q: Does the reported residual activity of the following compound sit strictly below 90%? Cc1nc(-c2ccccc2)c(-c2ccncc2)o1
A: not satisfied

Q: Does the reported residual activity of the following compound sit strictly below 90%? O=C1Nc2ccc(Br)cc2/C1=C\c1cc2c([nH]1)CCCC2
A: satisfied
